Cited source: ChEMBL document CHEMBL5523718

- experimental-details: Metabolic stability in rat liver microsome assessed as half life
- Type: ADME
- details: liver microsomes
test-readout: half-life (min)
Express your answer in min, writing the number without its unit.

The reported half-life of the compound COc1cc(NC(=O)c2cc(=O)c3ccccc3o2)c(C(=O)Nc2ccc(C3CCN(Cc4cccc(-n5ccnc5)c4)CC3)cc2)cc1OC was 15

* * *

- measurement-target: Cytochrome P450 3A4 (Homo sapiens, UniProt P08684)
- Sequence (P08684 whole entry): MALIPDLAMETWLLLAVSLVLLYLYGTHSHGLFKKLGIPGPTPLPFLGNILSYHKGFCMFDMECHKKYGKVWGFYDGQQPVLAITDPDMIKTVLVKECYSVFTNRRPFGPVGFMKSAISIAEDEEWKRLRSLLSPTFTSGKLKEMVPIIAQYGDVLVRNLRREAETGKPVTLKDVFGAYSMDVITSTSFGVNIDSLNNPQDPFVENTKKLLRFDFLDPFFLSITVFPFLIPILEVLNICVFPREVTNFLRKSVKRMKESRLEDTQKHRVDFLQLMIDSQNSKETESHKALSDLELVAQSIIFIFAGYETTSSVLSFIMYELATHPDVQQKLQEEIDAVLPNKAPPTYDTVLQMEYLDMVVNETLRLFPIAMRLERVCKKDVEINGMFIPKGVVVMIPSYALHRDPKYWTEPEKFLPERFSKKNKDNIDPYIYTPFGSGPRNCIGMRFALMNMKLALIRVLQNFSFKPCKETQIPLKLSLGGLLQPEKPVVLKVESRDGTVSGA
- experimental-details: Inhibition of CYP3A4 in human Hepatocyte using Luciferin-IPA as substrate
- Assay type: ADME, cell-based
test-readout: IC50 (nM)

# structure-smiles-string, uom, recorded-result
data = [
    ("COc1cc(NC(=O)c2cc(=O)c3ccccc3o2)c(C(=O)Nc2ccc(C3CCN(Cc4cccc(-n5cncn5)c4)CC3)cc2)cc1OC", "nM", 1330),
    ("COc1cc(NC(=O)c2cnc3ccccc3c2)c(C(=O)Nc2ccc(C3CCN(Cc4cccc(-n5ccnc5)c4)CC3)cc2)cc1OC", "nM", 1240),
]

[I] COc1cc(NC(=O)c2cc(=O)c3ccccc3o2)c(C(=O)Nc2ccc(C3CCN(Cc4cccc(-n5ccnc5)c4)CC3)cc2)cc1OC
[II] COc1cc(NC(=O)c2cnc3ccccc3c2)c(C(=O)Nc2ccc(N3CCN(Cc4cccc(-n5cncn5)c4)CC3)cc2)cc1OC
[III] COc1cc(NC(=O)c2cc(=O)c3ccccc3o2)c(C(=O)Nc2ccc(C3CCN(Cc4ccc5c(cnn5C)c4)CC3)cc2)cc1OC
[IV] COc1cc(NC(=O)c2cnc3ccccc3c2)c(C(=O)Nc2ccc(C3CCN(Cc4cccc(-c5ccncc5)c4)CC3)cc2)cc1OC
[V] COc1cc(NC(=O)c2cnc3ccccc3c2)c(C(=O)Nc2ccc(C3CCN(Cc4cccc(-c5cccnc5)c4)CC3)cc2)cc1OC
Challenge: Hey, quick one: sort these by IC50, low to high? Could you list the labels in the order requested?
Response given: II, V, I, IV, III
(II: 551 nM, V: 967 nM, I: 1470 nM, IV: 3210 nM, III: 5970 nM)
